# testSystem: human IDO1 (Homo sapiens, UniProt P14902)
# Sequence (P14902 whole entry): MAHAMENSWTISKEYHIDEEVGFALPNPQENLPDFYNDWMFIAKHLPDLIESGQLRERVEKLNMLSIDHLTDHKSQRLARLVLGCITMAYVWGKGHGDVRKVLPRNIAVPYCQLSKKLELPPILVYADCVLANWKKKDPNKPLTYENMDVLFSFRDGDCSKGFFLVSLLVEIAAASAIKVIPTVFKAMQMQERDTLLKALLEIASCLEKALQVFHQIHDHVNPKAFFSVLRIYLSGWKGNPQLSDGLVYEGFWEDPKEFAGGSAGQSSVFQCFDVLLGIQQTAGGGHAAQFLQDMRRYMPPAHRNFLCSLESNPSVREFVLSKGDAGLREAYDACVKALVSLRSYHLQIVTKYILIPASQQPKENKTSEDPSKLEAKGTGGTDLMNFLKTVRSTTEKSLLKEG
# assayOverview: HEK293 cells stably expressing human IDO1, IDO inhibition assay (kynurenine, Ehrlich reagent)
# conditionInfo: 20 hours incubation, absorbance at 490 nm, read-out: HEK Human IDO-1 Bio Activity (IDO IC50)
Listed here are molecules together with their documented IC50.

molecule: CN(C(=O)Nc1ccc(Cl)cc1)[C@H]1CC[C@@H](c2ccnc3ccc(F)cc32)CC1
IC50: < 1000 nM
//
molecule: O=C(O)Cc1ccc(CN(C(=O)Nc2ccc(Cl)cc2F)[C@H]2CC[C@H](c3ccnc4ccc(F)cc43)CC2)cc1
IC50: < 100 nM
//
molecule: C[C@H](NC(=O)N(Cc1ccccc1)[C@H]1CC[C@H](c2ccnc3ccc(F)cc32)CC1)c1ccc(Cl)cc1
IC50: < 10000 nM
//
molecule: CCN(C(=O)N[C@@H](C)c1ccc(Cl)cc1)[C@H]1CC[C@H](c2ccnc3ccc(F)cc32)CC1
IC50: < 1000 nM
//
molecule: O=C(Nc1ccc(Cl)cc1)N(Cc1ccccc1)[C@H]1CC[C@@H](c2ccnc3ccc(F)cc32)CC1
IC50: < 1000 nM
//
molecule: COc1ccc(CN(C(=O)NCc2ccc(F)cc2)C2CCC(c3ccccc3)CC2)cc1 (stereo not shown)
IC50: < 10000 nM
//
molecule: COc1ccc(CN(C(=O)NC2CCCCC2)[C@H]2CC[C@H](c3ccccc3)CC2)cc1
IC50: < 100 nM

###

Listed here are compounds together with their documented pIC50.
# testSystem: human IDO1 (Homo sapiens)
# assayOverview: HEK293 cells stably expressing human IDO1, IDO inhibition assay (kynurenine, Ehrlich reagent)
# conditionInfo: 20 hours incubation, absorbance at 490 nm, read-out: HEK Human IDO-1 Bio Activity (IDO IC50)
pIC50: −log10 of the molar value.

compound: O=C(Nc1ccc(F)cc1)N(Cc1ccccc1)[C@H]1CC[C@H](c2ccnc3ccc(F)cc32)CC1
pIC50: > 7.00

compound: O=C(Nc1ccc(Cl)cc1F)N(Cc1ccccc1)[C@H]1CC[C@H](c2ccnc3ccc(F)cc32)CC1
pIC50: > 6.00

compound: COc1ccc(CN(C(=O)NC2CCCC2)C2CCC(c3ccccc3)CC2)cc1 (centres unmarked)
pIC50: > 6.00

compound: C[C@H](NC(=O)N(C)[C@H]1CC[C@H](c2ccnc3ccc(F)cc32)CC1)c1ccc(Cl)cc1
pIC50: > 6.00

compound: CCN(C(=O)Nc1ccc(Cl)cc1)[C@H]1CC[C@H](c2ccnc3ccc(F)cc32)CC1
pIC50: > 7.00

compound: Cc1ccc(NC(=O)N(Cc2ccccc2)[C@H]2CC[C@H](c3ccnc4ccc(F)cc43)CC2)cc1
pIC50: > 6.00

compound: COc1ccc(CN(C(=O)Nc2ccc(F)c(F)c2)[C@H]2CC[C@H](c3ccccc3)CC2)cc1
pIC50: > 6.00

compound: COc1ccc(CN(C(=O)NC2CC2)C2CCC(c3ccccc3)CC2)cc1 (centres unmarked)
pIC50: > 6.00

compound: COc1ccc(CN(C(=O)N[C@@H](C)c2ccc(Cl)cc2)[C@H]2CC[C@H](c3ccccc3)CC2)cc1
pIC50: > 6.00

compound: COc1ccc(CN(C(=O)Nc2ccc(C(F)(F)F)cc2)[C@H]2CC[C@H](c3ccccc3)CC2)cc1
pIC50: > 7.00

compound: COc1ccc(CN(C(=O)Nc2ccc(F)cc2)[C@H]2CC[C@H](c3ccccc3)CC2)cc1
pIC50: > 6.00

compound: COc1ccc(CN(C(=O)Nc2ccc(OC(F)(F)F)cc2)[C@H]2CC[C@H](c3ccccc3)CC2)cc1
pIC50: > 6.00

compound: COc1ccc(CN(C(=O)Nc2ccc(F)cc2F)[C@H]2CC[C@H](c3ccccc3)CC2)cc1
pIC50: > 6.00

compound: C[C@H](NC(=O)N[C@H]1CC[C@H](c2ccnc3ccc(F)cc32)CC1)c1ccc(Cl)cc1
pIC50: > 6.00
